Taken from patent US11174268B2.

Entries and their pIC50
- target or test system: NaV1.6 (Homo sapiens (Human), UniProt Q9UQD0)
- Sequence (Q9UQD0 whole entry): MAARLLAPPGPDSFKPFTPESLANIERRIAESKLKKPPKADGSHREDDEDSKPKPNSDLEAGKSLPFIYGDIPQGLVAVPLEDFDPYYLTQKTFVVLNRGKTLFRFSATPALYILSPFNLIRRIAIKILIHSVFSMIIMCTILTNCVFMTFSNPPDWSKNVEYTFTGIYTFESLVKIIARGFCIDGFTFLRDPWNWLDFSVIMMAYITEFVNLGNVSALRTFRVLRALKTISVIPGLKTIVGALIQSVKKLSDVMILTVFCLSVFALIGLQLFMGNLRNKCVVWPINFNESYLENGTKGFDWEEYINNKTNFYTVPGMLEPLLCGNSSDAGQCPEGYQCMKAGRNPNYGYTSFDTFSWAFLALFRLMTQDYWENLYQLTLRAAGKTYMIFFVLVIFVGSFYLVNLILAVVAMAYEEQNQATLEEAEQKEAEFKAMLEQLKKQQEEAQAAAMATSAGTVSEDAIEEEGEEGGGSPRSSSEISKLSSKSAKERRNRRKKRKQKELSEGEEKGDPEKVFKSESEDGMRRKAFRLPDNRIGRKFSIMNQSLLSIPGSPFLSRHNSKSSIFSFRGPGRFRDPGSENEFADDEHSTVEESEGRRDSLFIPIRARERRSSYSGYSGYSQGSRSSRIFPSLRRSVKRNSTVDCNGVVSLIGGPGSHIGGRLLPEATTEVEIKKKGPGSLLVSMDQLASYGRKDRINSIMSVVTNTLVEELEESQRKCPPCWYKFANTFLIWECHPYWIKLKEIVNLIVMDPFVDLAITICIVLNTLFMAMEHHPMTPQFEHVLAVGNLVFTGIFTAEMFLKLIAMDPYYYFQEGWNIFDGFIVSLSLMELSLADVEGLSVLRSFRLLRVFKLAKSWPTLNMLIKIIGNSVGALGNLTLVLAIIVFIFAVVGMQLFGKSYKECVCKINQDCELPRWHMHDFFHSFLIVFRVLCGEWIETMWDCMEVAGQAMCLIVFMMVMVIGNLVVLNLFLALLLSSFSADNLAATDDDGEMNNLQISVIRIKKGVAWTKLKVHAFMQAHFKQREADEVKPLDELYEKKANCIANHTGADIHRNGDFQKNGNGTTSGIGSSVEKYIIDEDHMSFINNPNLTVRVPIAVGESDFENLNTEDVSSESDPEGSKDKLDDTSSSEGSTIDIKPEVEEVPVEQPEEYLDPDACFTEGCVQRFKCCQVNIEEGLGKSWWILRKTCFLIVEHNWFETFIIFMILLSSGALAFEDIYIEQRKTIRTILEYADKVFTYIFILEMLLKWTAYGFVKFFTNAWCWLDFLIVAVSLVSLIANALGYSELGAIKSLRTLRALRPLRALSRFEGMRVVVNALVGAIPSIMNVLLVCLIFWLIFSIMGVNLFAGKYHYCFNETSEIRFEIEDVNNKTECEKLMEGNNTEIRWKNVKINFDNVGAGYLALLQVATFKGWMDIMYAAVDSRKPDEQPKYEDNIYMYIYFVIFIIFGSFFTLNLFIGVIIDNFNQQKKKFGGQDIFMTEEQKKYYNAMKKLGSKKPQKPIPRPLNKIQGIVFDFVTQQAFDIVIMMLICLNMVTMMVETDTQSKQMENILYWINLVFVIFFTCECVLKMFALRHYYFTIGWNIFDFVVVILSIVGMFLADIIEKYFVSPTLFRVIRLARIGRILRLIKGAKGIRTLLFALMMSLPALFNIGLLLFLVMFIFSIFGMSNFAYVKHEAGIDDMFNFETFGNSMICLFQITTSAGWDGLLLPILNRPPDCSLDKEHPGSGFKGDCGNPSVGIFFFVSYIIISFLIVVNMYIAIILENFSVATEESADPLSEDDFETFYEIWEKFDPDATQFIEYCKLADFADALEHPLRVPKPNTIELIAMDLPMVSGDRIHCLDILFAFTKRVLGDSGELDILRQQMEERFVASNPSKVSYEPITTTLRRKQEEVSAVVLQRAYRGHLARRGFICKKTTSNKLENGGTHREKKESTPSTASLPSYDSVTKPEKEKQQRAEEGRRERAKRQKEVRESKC
- protocol description: Electrophysiological Assay (EP), patch voltage clamp, NaV1.6;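 further: sodium current recorded at ambient temperature, channels held inactivated then briefly repolarized to −150 mV for 20 ms before a test pulse, control currents in 0.5% DMSO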
- Format: cell-based
- experimental context: HEK-293 cells, whole-cell patch clamp
Structures can show the parent of a compound that is named as a salt.
Interpret pIC50 as the negative base-10 log of the concentration measured in mol/L.

compound | target or test system | pIC50
CCC(Nc1cc(F)c(S(=O)(=O)Nc2nccs2)cc1Cl)c1ccccc1 (centres unmarked) [Example 141] | NaV1.6 (Homo sapiens (Human), UniProt Q9UQD0) | 7.51

query: Entry O=S(=O)(Nc1cscn1)c1cc(Cl)c(NCc2c(F)ccc(F)c2CO)cc1F [Example 293] has what pIC50?
result: 6.69

query: Check O=S(=O)(Nc1cscn1)c1cc(Cl)c(NCc2ccccc2CN2CCC2)cc1F [Example 19, 2,2,2-trifluoroacetate] too.
result: 6.89

query: Now consider C[C@H](Nc1cc(F)c(S(=O)(=O)Nc2nccs2)cc1F)c1ccccc1F [Example 25] .
result: 7.24

query: Also, CCC(Nc1cc(F)c(S(=O)(=O)Nc2ncns2)cc1F)c1ccccc1 (centres unmarked) [Example 85] please.
result: 7.11

query: Repeat for the following compound: CC[C@H](Nc1cc(F)c(S(=O)(=O)Nc2ccncn2)cc1Cl)c1ccccc1Cl [Example 277, 2,2,2-trifluoroacetate]
result: 7.37

query: Moving on to C[C@H](Nc1ccc(S(=O)(=O)Nc2cscn2)c(F)c1Cl)c1cc(Cl)ccc1F [Example 190]
result: 7.26

query: Same for O=S(=O)(Nc1nccs1)c1ccc(NC2(c3ccccc3)COC2)c(Cl)c1 [Example 103]
result: 6.10

query: Same for O=S(=O)(Nc1nccs1)c1cc(Cl)c(OCc2ccccc2F)cc1F [Example 122]
result: 6.92

query: What would you report for Cc1c(NCc2ccccc2CN2CCC2)cc(F)c(S(=O)(=O)Nc2ncns2)c1F [Example 330] ?
result: 9.00

query: For O=S(=O)(Nc1cscn1)c1cc(Cl)c(NCc2c(F)ccc(F)c2CN2CCC2)cc1F [Example 288, hydrochloride] then?
result: 7.44
